Details: in water, 298.15 K
REPORTED_PROPERTY: solubility (mole fraction)
One number for each entry.

Fill in: solubility (mole fraction) of Nc1ccc(S(=O)(=O)Nc2ncccn2)cc1 is ___ 5.13e-06

---

Details: in NMP, 303.15 K
REPORTED_PROPERTY: solubility (mole fraction)
Answers are plain numbers.

Fill in: solubility (mole fraction) of Nc1ccc(S(=O)(=O)Nc2ncccn2)cc1 is ___ 0.0224

---

Details: in NMP, 308.15 K
REPORTED_PROPERTY: solubility (mole fraction)

Fill in: solubility (mole fraction) of Nc1ccc(S(=O)(=O)Nc2ncccn2)cc1 is ___ 0.132
